- assay comment: Plasma and brain levels (pK/pD analysis)
- Format: in vivo, mice
- condition description: mouse, plasma, subcutaneous, 30 mg/kg, 30 mg/kg s.c.; 44 mA group; read-out: Co. No. 25-a mean plasma levels

{"structure smiles": "CCCCn1ccc(N2CCC(c3ccc(F)cc3F)CC2)c(Cl)c1=O", "concentration at 0.25 h": "7220 ng/mL"}

* * *

- assay comment: Plasma and brain levels (pK/pD analysis)
- Format: in vivo, mice
- condition description: mouse, plasma, subcutaneous, 20 mg/kg, 20 mg/kg s.c., 0.25 h; 32 mA group; read-out: Co. No. 25-a mean plasma levels
measured parameter: concentration at 0.25 h (ng/mL)

{"structure smiles": "CCCCn1ccc(N2CCC(c3ccc(F)cc3F)CC2)c(Cl)c1=O", "reported": 4100}

* * *

- assay comment: Plasma and brain levels (pK/pD analysis)
- Assay type: in vivo, mice
- condition description: mouse, brain, subcutaneous, Mean Brain Level Co. No. 2, Co. No. 2 3 mg/kg combined with LEV 10 mg/kg
measured parameter: concentration at 0.25 h (ng/mL)

{"structure smiles": "FC(F)(F)c1c(N2CCC(c3ccccc3)CC2)ccn2c(CC3CC3)nnc12", "measured parameter": "concentration at 0.25 h", "reported": 1230}

* * *

- assay comment: Plasma and brain levels (pK/pD analysis)
- Format: in vivo, mice
- condition description: mouse, plasma, subcutaneous, 10 mg/kg, 10 mg/kg s.c., 0.25 h; 32 mA group; read-out: Co. No. 25-a mean plasma levels
measured parameter: concentration at 0.25 h

{"molecule": "CCCCn1ccc(N2CCC(c3ccc(F)cc3F)CC2)c(Cl)c1=O [Co. No. 25-a]", "reported": "11 µg/mL"}

* * *

- system under test: human mGlu2 receptor (Homo sapiens)
- Construct: expressed in transfected cells; host or cells: CHO cells
- assay comment: [35S]GTPγS binding assay, mGluR2 PAM
- Assay type: biochemical
- condition description: in presence of EC20 glutamate

{"structure smiles": "O=c1c(Cl)c(N2CCC(c3cccc(C(F)(F)F)c3)CC2)ccn1CC1CC1", "GTPγS-hmGluR2 PAM pEC50": 7.12}
{"structure smiles": "O=c1c(Cl)c(N2CCC(c3ccccc3F)CC2)ccn1CC1CC1", "GTPγS-hmGluR2 PAM pEC50": 7.03}
{"structure smiles": "CC(C)Cn1ccc(N2CCC(c3ccccc3)CC2)c(Cl)c1=O", "GTPγS-hmGluR2 PAM pEC50": 6.71}
{"structure smiles": "O=c1c(Cl)c(N2CCC(c3ccccc3Cl)CC2)ccn1CC1CC1", "GTPγS-hmGluR2 PAM pEC50": 7}
{"structure smiles": "CC(C)CCn1ccc(N2CCC(c3ccc(F)cc3F)CC2)c(Cl)c1=O", "GTPγS-hmGluR2 PAM pEC50": 6.91}

* * *

Catalogue of Emax readings, one per entry.
- system under test: human mGlu2 receptor (Homo sapiens, UniProt Q14416)
- Construct: expressed in transfected cells; host or cells: CHO cells
- Sequence (Q14416 19-872): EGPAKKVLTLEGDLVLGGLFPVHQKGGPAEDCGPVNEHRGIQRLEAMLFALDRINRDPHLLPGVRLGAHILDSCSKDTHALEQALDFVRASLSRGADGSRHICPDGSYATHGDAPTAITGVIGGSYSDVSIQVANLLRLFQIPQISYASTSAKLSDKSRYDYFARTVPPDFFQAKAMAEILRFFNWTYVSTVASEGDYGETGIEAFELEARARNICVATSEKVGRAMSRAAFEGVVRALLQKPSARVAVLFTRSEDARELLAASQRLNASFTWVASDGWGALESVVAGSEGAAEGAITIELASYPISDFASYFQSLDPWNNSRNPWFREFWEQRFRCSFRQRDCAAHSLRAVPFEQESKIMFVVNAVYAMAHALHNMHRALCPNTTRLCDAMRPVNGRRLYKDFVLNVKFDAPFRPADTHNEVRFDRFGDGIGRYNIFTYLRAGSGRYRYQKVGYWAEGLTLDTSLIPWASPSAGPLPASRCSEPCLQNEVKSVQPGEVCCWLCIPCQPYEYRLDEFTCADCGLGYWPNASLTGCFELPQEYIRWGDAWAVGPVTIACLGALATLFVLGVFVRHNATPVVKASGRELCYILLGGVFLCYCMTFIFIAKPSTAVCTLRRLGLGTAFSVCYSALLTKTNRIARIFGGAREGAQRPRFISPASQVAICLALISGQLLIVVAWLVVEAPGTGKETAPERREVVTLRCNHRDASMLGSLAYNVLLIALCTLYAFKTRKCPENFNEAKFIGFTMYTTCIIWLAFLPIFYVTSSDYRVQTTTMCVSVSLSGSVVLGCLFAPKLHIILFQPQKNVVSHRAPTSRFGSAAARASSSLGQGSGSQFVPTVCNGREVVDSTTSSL
- assay comment: [35S]GTPγS binding assay, mGluR2 PAM
- Type: biochemical
- condition description: maximal % effect relative to control glutamate response; EC20 glutamate; read-out: GTPγS-hmGluR2 PAM Emax

{"compound": "C[C@H](Oc1ccc(F)c(F)c1)c1ccn2c(CC3CC3)nnc2c1C(F)(F)F", "system under test": "human mGlu2 receptor (Homo sapiens, UniProt Q14416)", "Emax (%)": 244}
{"compound": "CCCCn1ccc(N2CCC(c3ccc(F)cc3F)CC2)c(Cl)c1=O", "system under test": "human mGlu2 receptor (Homo sapiens, UniProt Q14416)", "Emax (%)": 261}
{"compound": "C[C@H](Oc1cc(F)ccc1F)c1ccn2c(CC3CC3)nnc2c1C(F)(F)F", "system under test": "human mGlu2 receptor (Homo sapiens, UniProt Q14416)", "Emax (%)": 218}
{"compound": "O=c1c(Cl)c(N2CCC(c3cccc(C(F)(F)F)c3)CC2)ccn1CC1CC1", "system under test": "human mGlu2 receptor (Homo sapiens, UniProt Q14416)", "Emax (%)": 223}
{"compound": "O=c1c(Cl)c(N2CCC(c3ccccc3)CC2)ccn1CC1CC1", "system under test": "human mGlu2 receptor (Homo sapiens, UniProt Q14416)", "Emax (%)": 314}
{"compound": "CCCCn1ccc(N2CCC(c3ccccc3C(C)(C)O)CC2)c(Cl)c1=O", "system under test": "human mGlu2 receptor (Homo sapiens, UniProt Q14416)", "Emax (%)": 297}
{"compound": "O=c1c(Cl)c(N2CCC(c3ccccc3F)CC2)ccn1CC1CC1", "system under test": "human mGlu2 receptor (Homo sapiens, UniProt Q14416)", "Emax (%)": 242}
{"compound": "CCCCn1ccc(N2CCC(c3ccc(C(C)(C)O)cc3)CC2)c(Cl)c1=O", "system under test": "human mGlu2 receptor (Homo sapiens, UniProt Q14416)", "Emax (%)": 284}
{"compound": "C[C@H](Oc1c(F)cccc1F)c1ccn2c(CC3CC3)nnc2c1C(F)(F)F", "system under test": "human mGlu2 receptor (Homo sapiens, UniProt Q14416)", "Emax (%)": 239}
{"compound": "CCCc1nnc2c(C(F)(F)F)c(C(C)Oc3ccc(F)cc3F)ccn12 (stereo not drawn)", "system under test": "human mGlu2 receptor (Homo sapiens, UniProt Q14416)", "Emax (%)": 227}
{"compound": "O=c1c(Cl)c(N2CCC(c3ccc(F)cc3F)CC2)ccn1CC1CC1", "system under test": "human mGlu2 receptor (Homo sapiens, UniProt Q14416)", "Emax (%)": 259}
{"compound": "FC(F)(F)Cc1nnc2c(Cl)c(N3CCC(F)(c4ccccc4)CC3)ccn12", "system under test": "human mGlu2 receptor (Homo sapiens, UniProt Q14416)", "Emax (%)": 310}
{"compound": "C[C@H](Oc1cc(F)cc(F)c1)c1ccn2c(CC3CC3)nnc2c1C(F)(F)F", "system under test": "human mGlu2 receptor (Homo sapiens, UniProt Q14416)", "Emax (%)": 292}
{"compound": "C[C@H](Oc1cccc(F)c1F)c1ccn2c(CC3CC3)nnc2c1C(F)(F)F", "system under test": "human mGlu2 receptor (Homo sapiens, UniProt Q14416)", "Emax (%)": 260}
{"compound": "CCCCn1ccc(N2CCC(CO)(c3ccccc3)CC2)c(Cl)c1=O", "system under test": "human mGlu2 receptor (Homo sapiens, UniProt Q14416)", "Emax (%)": 259}

* * *

- assay comment: Plasma and brain levels (pK/pD analysis)
- Type: in vivo, mice
- condition description: mouse, plasma, subcutaneous, 10 mg/kg, 10 mg/kg s.c., 0.5 h; 32 mA group; read-out: Co. No. 25-a mean plasma levels
measured parameter: concentration at 0.5 h (ng/mL)

{"compound": "CCCCn1ccc(N2CCC(c3ccc(F)cc3F)CC2)c(Cl)c1=O [Co. No. 25-a]", "reported": 3330}

* * *

- system under test: human mGlu2 receptor (Homo sapiens, UniProt Q14416)
- Construct: expressed in transfected cells; host or cells: CHO cells
- assay comment: [35S]GTPγS binding assay, mGluR2 PAM
- Format: biochemical
- condition description: in presence of EC20 glutamate; read-out: GTPγS-hmGluR2 PAM pEC50 (converted)
Recorded EC50 for the following compounds
measured parameter: EC50

{"compound": "CC(C)(O)c1ccc(C2CCN(c3ccn(CC4CC4)c(=O)c3C3CC3)CC2)cc1", "system under test": "human mGlu2 receptor (Homo sapiens, UniProt Q14416)", "measured parameter": "EC50", "reported": "257 nM"}
{"compound": "CCCCn1ccc(N2CCC(c3ccc(C(C)(C)O)cc3F)CC2)c(Cl)c1=O", "system under test": "human mGlu2 receptor (Homo sapiens, UniProt Q14416)", "measured parameter": "EC50", "reported": "107 nM"}
{"compound": "COc1cnc(N2CCN(c3ccn4c(CC5CC5)nnc4c3C(F)(F)F)CC2)nc1", "system under test": "human mGlu2 receptor (Homo sapiens, UniProt Q14416)", "measured parameter": "EC50", "reported": "126 nM"}
{"compound": "O=c1c(Cl)c(N2CCC(F)(c3ccccc3)CC2)ccn1CCC1CC1", "system under test": "human mGlu2 receptor (Homo sapiens, UniProt Q14416)", "measured parameter": "EC50", "reported": "316 nM"}
{"compound": "CCCc1nnc2c(C(F)(F)F)c(C(C)Oc3ccc(F)cc3F)ccn12 (single isomer, unassigned) [Co. No. 32-b]", "system under test": "human mGlu2 receptor (Homo sapiens, UniProt Q14416)", "measured parameter": "EC50", "reported": "1950 nM"}
{"compound": "CCCCn1ccc(N2CCC(c3ccccc3C(C)(C)O)CC2)c(Cl)c1=O", "system under test": "human mGlu2 receptor (Homo sapiens, UniProt Q14416)", "measured parameter": "EC50", "reported": "110 nM"}
{"compound": "CCCCn1ccc(N2CCC(c3ccc(F)cc3F)CC2)c(Cl)c1=O", "system under test": "human mGlu2 receptor (Homo sapiens, UniProt Q14416)", "measured parameter": "EC50", "reported": "85.1 nM"}
{"compound": "O=c1c(Cl)c(N2CCC(c3ccccc3)CC2)ccn1CC1CC1", "system under test": "human mGlu2 receptor (Homo sapiens, UniProt Q14416)", "measured parameter": "EC50", "reported": "166 nM"}
{"compound": "CCCCn1ccc(N2CCC(c3ccc(C(C)(C)O)cc3)CC2)c(Cl)c1=O", "system under test": "human mGlu2 receptor (Homo sapiens, UniProt Q14416)", "measured parameter": "EC50", "reported": "331 nM"}
{"compound": "CCCc1nnc2c(C(F)(F)F)c(C(C)Oc3ccc(F)cc3F)ccn12 (single isomer, unassigned) [Co. No. 31-b]", "system under test": "human mGlu2 receptor (Homo sapiens, UniProt Q14416)", "measured parameter": "EC50", "reported": "89.1 nM"}
{"compound": "CCCCn1ccc(N2CCC3(CC2)OCc2ccccc23)c(Cl)c1=O", "system under test": "human mGlu2 receptor (Homo sapiens, UniProt Q14416)", "measured parameter": "EC50", "reported": "219 nM"}
